Exercise: state measured dH for each of the binders provided.
Target: T1, human Arc N-lobe (hArc-NL, residues 207–277) (human, UniProt Q7LC44 207-277)
T1 sequence: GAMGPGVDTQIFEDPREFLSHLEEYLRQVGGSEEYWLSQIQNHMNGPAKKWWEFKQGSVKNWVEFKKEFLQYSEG
Experiment: ITC
Square brackets hold non-standard residues; d marks the D form. pS = N[C@@H](COP(=O)(O)O)C(=O)O
Express your answer in kcal/mol, writing the number without its unit.

// query Give a short answer stating reported dH for Ac-TSPKFRSR-NH2 [GKAP repeat 4 peptide] .
// result -10.9

// query Give the measured dH for Ac-TSPKFRSRNESYMRAMST-NH2 [long GKAP repeat 4 peptide]
// result -7.2

// query Retrieve dH measured for Ac-MPGCFRMR-NH2 [GKAP repeat 5 peptide] and print it.
// result -8.2

// query Please list dH recorded for the binder Ac-RIP[pS]YRYR-NH2 (SMILES CC[C@H](C)[C@H](NC(=O)[C@H](CCCNC(=N)N)NC(C)=O)C(=O)N1CCC[C@H]1C(=O)N[C@@H](COP(=O)(O)O)C(=O)N[C@@H](Cc1ccc(O)cc1)C(=O)N[C@@H](CCCNC(=N)N)C(=O)N[C@@H](Cc1ccc(O)cc1)C(=O)N[C@@H](CCCNC(=N)N)C(N)=O) [phosphorylated stargazin peptide pStg(phos)]
// result -66.5

// query Please report dH for the following binder: Ac-RIPSYRYR-NH2 [stargazin peptide pStg(wt)]
// result -13.1
